A collection of compounds and their measured pIC50
Biological target: HIV-1 RT enzyme (wild type) (Human immunodeficiency virus type 1 group M subtype B)
Construct: The reverse transcriptase (RT) enzyme assay has been adapted to a 96-well microtiter plate format
Experiment: Reverse transcriptase (RT) enzymatic assay (IC50), PicoGreen fluorescence, wild type
Type: biochemical
Settings: RT enzymatic assay, wild type; read-out: IC50 WT
pIC50: −log10 of the molar value.
metric: pIC50

compound="CCN(CC)c1ccc(-n2nnnc2SCC(=O)Nc2ccccc2Cl)c(Cl)c1 [Entry 705]" systemtested="HIV-1 RT enzyme (wild type) (Human immunodeficiency virus type 1 group M subtype B)" metric=pIC50 result="> 7.30"
compound="O=C(NCCSc1nnnn1-c1cccc2ccccc12)Nc1ccccc1Cl [Entry 334]" systemtested="HIV-1 RT enzyme (wild type) (Human immunodeficiency virus type 1 group M subtype B)" metric=pIC50 result="< 7.00"
compound="CN(CCSc1nnnn1-c1cccc2ccccc12)C(=O)c1ccccc1Cl [Entry 332]" systemtested="HIV-1 RT enzyme (wild type) (Human immunodeficiency virus type 1 group M subtype B)" metric=pIC50 result="< 7.00"
compound="O=[N+]([O-])c1ccccc1CNCCSc1nnnn1-c1cccc2ccccc12 [Entry 328]" systemtested="HIV-1 RT enzyme (wild type) (Human immunodeficiency virus type 1 group M subtype B)" metric=pIC50 result="< 7.00"
compound="O=C(CSc1nnnn1-c1ccccc1)Nc1ccccc1[N+](=O)[O-] [Entry 108]" systemtested="HIV-1 RT enzyme (wild type) (Human immunodeficiency virus type 1 group M subtype B)" metric=pIC50 result="< 7.00"
compound="CC(C)=CCc1ccc(-n2nnnc2SCC(=O)Nc2ccccc2Cl)c(Cl)c1 [Entry 709]" systemtested="HIV-1 RT enzyme (wild type) (Human immunodeficiency virus type 1 group M subtype B)" metric=pIC50 result="> 7.30"
compound="Cc1ccc(NC(=O)CSc2nnnn2-c2ccc(C)cc2Cl)c(Cl)c1 [Entry 502]" systemtested="HIV-1 RT enzyme (wild type) (Human immunodeficiency virus type 1 group M subtype B)" metric=pIC50 result="> 7.30"
compound="Cc1cc(C)c(-n2nnnc2SCC(=O)Nc2ccccc2Cl)c(C)c1 [Entry 421]" systemtested="HIV-1 RT enzyme (wild type) (Human immunodeficiency virus type 1 group M subtype B)" metric=pIC50 result="> 7.30"
compound="CC(C)S(=O)(=O)c1ccc(NC(=O)CSc2nnnn2-c2ccc(C(C)(C)C)cc2Cl)c(Cl)c1 [Entry 607]" systemtested="HIV-1 RT enzyme (wild type) (Human immunodeficiency virus type 1 group M subtype B)" metric=pIC50 result="> 7.30"
compound="Cc1nnc(SCC(=O)Nc2ccccc2[N+](=O)[O-])n1-c1cccc2ccccc12 [Entry 403]" systemtested="HIV-1 RT enzyme (wild type) (Human immunodeficiency virus type 1 group M subtype B)" metric=pIC50 result="> 7.30"
compound="O=C(C[S+]([O-])c1ccccc1-c1cccc2ccccc12)Nc1ccccc1Cl (stereo not drawn) [Entry 407]" systemtested="HIV-1 RT enzyme (wild type) (Human immunodeficiency virus type 1 group M subtype B)" metric=pIC50 result="< 7.00"
compound="O=C(CSc1nnnn1-c1cccc2ccccc12)Nc1ccc(O)cc1 [Entry 225]" systemtested="HIV-1 RT enzyme (wild type) (Human immunodeficiency virus type 1 group M subtype B)" metric=pIC50 result="< 7.00"
compound="COC(=O)c1ccccc1-n1nnnc1SCC(=O)Nc1ccccc1[N+](=O)[O-] [Entry 117]" systemtested="HIV-1 RT enzyme (wild type) (Human immunodeficiency virus type 1 group M subtype B)" metric=pIC50 result="> 7.30"
compound="O=C(CSc1nnnn1-c1ccc(Cl)cc1Cl)Nc1ccccc1[N+](=O)[O-] [Entry 126]" systemtested="HIV-1 RT enzyme (wild type) (Human immunodeficiency virus type 1 group M subtype B)" metric=pIC50 result="< 7.00"
compound="COc1ccccc1NC(=O)CSc1nnnn1-c1cccc2ccccc12 [Entry 212]" systemtested="HIV-1 RT enzyme (wild type) (Human immunodeficiency virus type 1 group M subtype B)" metric=pIC50 result="< 7.00"
compound="CCc1ccccc1NC(=O)CSc1nnnn1-c1cccc2ccccc12 [Entry 203]" systemtested="HIV-1 RT enzyme (wild type) (Human immunodeficiency virus type 1 group M subtype B)" metric=pIC50 result="< 7.00"
compound="Cc1ccc(-n2nnnc2SCC(=O)Nc2ccc(C(=O)O)cc2Cl)c(Cl)c1 [Entry 503]" systemtested="HIV-1 RT enzyme (wild type) (Human immunodeficiency virus type 1 group M subtype B)" metric=pIC50 result="> 7.30"
compound="O=[N+]([O-])c1ccccc1OCCSc1nnnn1-c1cccc2ccccc12 [Entry 320]" systemtested="HIV-1 RT enzyme (wild type) (Human immunodeficiency virus type 1 group M subtype B)" metric=pIC50 result="< 7.00"
compound="O=C(CCCc1nnnn1-c1cccc2ccccc12)Nc1ccccc1[N+](=O)[O-] [Entry 306]" systemtested="HIV-1 RT enzyme (wild type) (Human immunodeficiency virus type 1 group M subtype B)" metric=pIC50 result="< 7.00"
compound="CCc1ccc(-n2nnnc2SCC(=O)Nc2ccccc2Cl)c(Cl)c1 [Entry 707]" systemtested="HIV-1 RT enzyme (wild type) (Human immunodeficiency virus type 1 group M subtype B)" metric=pIC50 result="> 7.30"
compound="Cc1ccc(-n2nnnc2SCC(=O)Nc2ccc(-c3cccnc3)cc2Cl)c(Cl)c1 [Entry 512]" systemtested="HIV-1 RT enzyme (wild type) (Human immunodeficiency virus type 1 group M subtype B)" metric=pIC50 result="> 7.30"
compound="O=[N+]([O-])c1cccc2[nH]c(CSc3nnnn3-c3cccc4ccccc34)nc12 [Entry 340]" systemtested="HIV-1 RT enzyme (wild type) (Human immunodeficiency virus type 1 group M subtype B)" metric=pIC50 result="< 7.00"
compound="O=C(CSc1ccccc1-c1cccc2ccccc12)Nc1ccccc1Cl [Entry 406]" systemtested="HIV-1 RT enzyme (wild type) (Human immunodeficiency virus type 1 group M subtype B)" metric=pIC50 result="> 7.30"
compound="OC(CSc1nnnn1-c1cccc2ccccc12)C(O)c1ccccc1Cl (stereo not drawn) [Entry 319]" systemtested="HIV-1 RT enzyme (wild type) (Human immunodeficiency virus type 1 group M subtype B)" metric=pIC50 result="< 7.00"
compound="O=C(CSc1nnnn1-c1cccc2ccccc12)Nc1ccccc1N1CCOCC1 [Entry 221]" systemtested="HIV-1 RT enzyme (wild type) (Human immunodeficiency virus type 1 group M subtype B)" metric=pIC50 result="< 7.00"
compound="O=C(OCCSc1nnnn1-c1cccc2ccccc12)c1ccccc1Cl [Entry 323]" systemtested="HIV-1 RT enzyme (wild type) (Human immunodeficiency virus type 1 group M subtype B)" metric=pIC50 result="< 7.00"
compound="Cc1ccc(-c2ccccc2SCC(=O)Nc2ccccc2[N+](=O)[O-])c(Cl)c1 [Entry 417]" systemtested="HIV-1 RT enzyme (wild type) (Human immunodeficiency virus type 1 group M subtype B)" metric=pIC50 result="> 7.30"
compound="O=[N+]([O-])c1ccccc1CCSc1nnnn1-c1cccc2ccccc12 [Entry 310]" systemtested="HIV-1 RT enzyme (wild type) (Human immunodeficiency virus type 1 group M subtype B)" metric=pIC50 result="< 7.00"
compound="O=[N+]([O-])c1ccccc1C(O)CSc1nnnn1-c1cccc2ccccc12 (stereo not drawn) [Entry 309]" systemtested="HIV-1 RT enzyme (wild type) (Human immunodeficiency virus type 1 group M subtype B)" metric=pIC50 result="< 7.00"
compound="O=C(CSc1nnnn1-c1cccc2ccccc12)Nc1ccc(O)cc1Cl [Entry 246]" systemtested="HIV-1 RT enzyme (wild type) (Human immunodeficiency virus type 1 group M subtype B)" metric=pIC50 result="> 7.30"
compound="O=C(CSc1nnnn1-c1cccc2ccccc12)Nc1cccnc1 [Entry 244]" systemtested="HIV-1 RT enzyme (wild type) (Human immunodeficiency virus type 1 group M subtype B)" metric=pIC50 result="< 7.00"
compound="CC(C)(C)c1ccc(-n2nnnc2SCC(=O)Nc2ccc(N3CCCCC3)cc2Cl)c(Cl)c1 [Entry 613]" systemtested="HIV-1 RT enzyme (wild type) (Human immunodeficiency virus type 1 group M subtype B)" metric=pIC50 result="> 7.30"
compound="COC(=O)c1ccc(NC(=O)CSc2nnnn2-c2ccc(C)cc2Cl)c([N+](=O)[O-])c1 [Entry 506]" systemtested="HIV-1 RT enzyme (wild type) (Human immunodeficiency virus type 1 group M subtype B)" metric=pIC50 result="> 7.30"
compound="O=C(CSc1nnnn1-c1cccc2ccccc12)Nc1ccncc1 [Entry 245]" systemtested="HIV-1 RT enzyme (wild type) (Human immunodeficiency virus type 1 group M subtype B)" metric=pIC50 result="< 7.00"
compound="O=C(Nc1ccccc1[N+](=O)[O-])C1CC1c1nnnn1-c1cccc2ccccc12 (stereo not drawn) [Entry 343]" systemtested="HIV-1 RT enzyme (wild type) (Human immunodeficiency virus type 1 group M subtype B)" metric=pIC50 result="< 7.00"
compound="Cc1cc(C)c(-n2nnnc2SCC(=O)c2ccc3c(c2)OCO3)c(C)c1 [Entry 423]" systemtested="HIV-1 RT enzyme (wild type) (Human immunodeficiency virus type 1 group M subtype B)" metric=pIC50 result="< 7.00"
